ASSAYED_SYSTEM: cloned human MC4R (Homo sapiens, UniProt P32245)
Construct: made in house; host or cells: Hi5 insect cells (baculovirus infection); membrane preparation
Sequence (P32245 whole entry): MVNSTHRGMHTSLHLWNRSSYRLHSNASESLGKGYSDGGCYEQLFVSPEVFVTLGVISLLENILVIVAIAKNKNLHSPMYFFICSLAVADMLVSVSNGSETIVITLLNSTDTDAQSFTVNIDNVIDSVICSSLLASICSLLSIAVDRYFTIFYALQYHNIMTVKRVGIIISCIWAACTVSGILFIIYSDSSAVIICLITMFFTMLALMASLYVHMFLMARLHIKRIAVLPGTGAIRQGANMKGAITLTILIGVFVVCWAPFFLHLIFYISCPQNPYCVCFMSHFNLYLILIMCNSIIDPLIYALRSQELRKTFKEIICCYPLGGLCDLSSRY
METHOD_SUMMARY: Membrane binding assay: competitive inhibition of [125I]NDP-α-MSH binding
ASSAY_CONTEXT: at 10 μM; [125I]NDP-α-MSH displacement; read-out: Displacement Rate (%) (at 10 μM)
Experimental: Hi5 cells are infected using the following protocol: Cells at a density of 1×10^6 cells/mL are spun down at 1000 rpm (Beckman GS-6KR centrifuge) for 10 minutes. Cells are resuspended in 10% of their original volume in a sterile 50 mL conical centrifuge tube wrapped with aluminum foil. […] Protein content is determined (Bradford, Bio-Rad Protein Assay). […] Dose-response curves are fitted by […] analyses and IC50 values are calculated using ExcelFit.
MEASURED_QUANTITY: inhibition at 10 µM

Form field, inhibition at 10 µM with cloned human MC4R (Homo sapiens, UniProt P32245), item CCn1c2ccccc2c2cc(CN3CCCN(C(=O)[C@@H](N)Cc4ccc(OCc5ccccc5)cc4)CC3)ccc21 : 91 to 100%

Recorded inhibition at 10 µM for Cc1ccc(-c2ccc(C[C@H](N)C(=O)N3CCN(Cc4cccc(Cl)c4Cl)CC3)cc2)cc1 on cloned human MC4R (Homo sapiens, UniProt P32245) was 91 to 100%

Record CC(C)CN1CCN(C(=O)[C@@H](N)Cc2ccc(OCc3ccccc3)cc2)CC1 / cloned human MC4R (Homo sapiens, UniProt P32245), inhibition at 10 µM recorded as 35 to 70%

cloned human MC4R (Homo sapiens, UniProt P32245) assay, compound N[C@@H](Cc1ccc(OCc2ccccc2)cc1)C(=O)N1CCN(Cc2ccc(F)cc2F)CC1 , recorded inhibition at 10 µM = 35 to 70%

inhibition at 10 µM for cloned human MC4R (Homo sapiens, UniProt P32245) with input N[C@@H](Cc1ccc(OCc2ccccc2)cc1)C(=O)N1CCN(Cc2ccc(N(c3ccccc3)c3ccccc3)cc2)CC1 equals 91 to 100%

Param item: N[C@@H](Cc1ccc(OCc2ccccc2)cc1)C(=O)N1CCCN(Cc2ccc(OCc3ccc([N+](=O)[O-])cc3)cc2)CC1 ; param system: cloned human MC4R (Homo sapiens, UniProt P32245); output inhibition at 10 µM: 71 to 90%

cloned human MC4R (Homo sapiens, UniProt P32245) data for N[C@@H](Cc1ccc(-c2cccc(Cl)c2Cl)cc1)C(=O)N1CCN(Cc2cccc(Cl)c2Cl)CC1 ; its inhibition at 10 µM: 91 to 100%

----------
Provide the reported inhibition at 10 µM of each item.
ASSAYED_SYSTEM: cloned human MC4R (Homo sapiens)
Construct: made in house; host or cells: Hi5 insect cells (baculovirus infection); membrane preparation
METHOD_SUMMARY: Membrane binding assay: competitive inhibition of [125I]NDP-α-MSH binding
ASSAY_CONTEXT: at 10 μM; [125I]NDP-α-MSH displacement; read-out: Displacement Rate (%) (at 10 μM)

The reported value for N[C@@H](Cc1ccc(OCc2ccccc2)cc1)C(=O)N1CCN(Cc2cccc(F)c2F)CC1 in terms of inhibition at 10 µM is 71 to 90%

Value of measured inhibition at 10 µM for the entry CC(C)(C)c1ccc(CN2CCCN(C(=O)[C@@H](N)Cc3ccc(OCc4ccccc4)cc3)CC2)cc1 : 71 to 90%

So for N[C@@H](Cc1ccc(OCc2ccccc2)cc1)C(=O)N1CCCN(Cc2c(F)cccc2Cl)CC1 , the logged inhibition at 10 µM turned out to be 35 to 70%

Notebook: COc1ccc2ccccc2c1CN1CCCN(C(=O)[C@@H](N)Cc2ccc(OCc3ccccc3)cc2)CC1 , inhibition at 10 µM read as 71 to 90%
